# inhibition per record follows
# Test Target: Mitogen-activated protein kinase 7 (Homo sapiens) (UniProt Q13164)
# Sequence (Q13164 2-816 limits assumed): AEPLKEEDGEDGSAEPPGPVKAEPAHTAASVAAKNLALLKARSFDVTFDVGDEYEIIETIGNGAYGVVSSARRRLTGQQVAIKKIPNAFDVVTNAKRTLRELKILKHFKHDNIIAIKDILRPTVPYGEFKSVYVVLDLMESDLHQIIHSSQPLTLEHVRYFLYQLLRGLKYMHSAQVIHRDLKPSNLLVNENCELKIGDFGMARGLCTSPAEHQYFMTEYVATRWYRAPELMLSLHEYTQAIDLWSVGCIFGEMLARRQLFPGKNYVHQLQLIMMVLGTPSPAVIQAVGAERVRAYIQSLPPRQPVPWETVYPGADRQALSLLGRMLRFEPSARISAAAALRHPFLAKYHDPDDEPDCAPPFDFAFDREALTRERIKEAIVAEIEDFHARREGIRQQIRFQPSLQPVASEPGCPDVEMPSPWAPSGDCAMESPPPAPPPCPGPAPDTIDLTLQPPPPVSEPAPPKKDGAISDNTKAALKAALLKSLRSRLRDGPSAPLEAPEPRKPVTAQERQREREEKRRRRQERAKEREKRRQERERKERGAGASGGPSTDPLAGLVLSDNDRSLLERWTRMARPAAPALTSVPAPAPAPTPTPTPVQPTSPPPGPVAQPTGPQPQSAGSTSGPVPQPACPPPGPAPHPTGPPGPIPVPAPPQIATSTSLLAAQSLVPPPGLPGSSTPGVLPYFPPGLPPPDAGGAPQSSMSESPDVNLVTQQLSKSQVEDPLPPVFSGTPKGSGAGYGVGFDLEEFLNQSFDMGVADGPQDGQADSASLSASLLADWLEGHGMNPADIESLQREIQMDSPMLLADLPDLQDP
# Experimental Protocol: Inhibition of ERK5 (unknown origin) at 1 uM by Z'-Lyte assay relative to control
Value expressed in %; do not type the unit.

Request: Find inhibition (Mitogen-activated protein kinase 7 (Homo sapiens) (UniProt Q13164)) for the entry `NC(=O)c1c(NC(=O)c2ccccc2Br)sc2c1CCN(C(=S)Nc1ccccc1C(F)(F)F)C2`
Result: 78.6

Request: Value wanted: inhibition (Mitogen-activated protein kinase 7 (Homo sapiens) (UniProt Q13164)) of entry `NC(=O)c1c(NC(=O)c2ccc(C(F)(F)F)cc2)sc2c1CCN(C(=S)Nc1ccc(C(F)(F)F)cc1)C2`
Result: 57.9

Request: Please tell me: inhibition of `NC(=O)c1c(NC(=O)c2ccc(C(F)(F)F)cc2)sc2c1CCN(C(=O)Nc1ccccc1Cl)C2` , system Mitogen-activated protein kinase 7 (Homo sapiens) (UniProt Q13164)?
Result: 62.2

====

Catalogue of inhibition readings, one per entry.
# Test Target: Mitogen-activated protein kinase 3 (Homo sapiens) (UniProt P27361)
# Sequence (P27361 whole entry): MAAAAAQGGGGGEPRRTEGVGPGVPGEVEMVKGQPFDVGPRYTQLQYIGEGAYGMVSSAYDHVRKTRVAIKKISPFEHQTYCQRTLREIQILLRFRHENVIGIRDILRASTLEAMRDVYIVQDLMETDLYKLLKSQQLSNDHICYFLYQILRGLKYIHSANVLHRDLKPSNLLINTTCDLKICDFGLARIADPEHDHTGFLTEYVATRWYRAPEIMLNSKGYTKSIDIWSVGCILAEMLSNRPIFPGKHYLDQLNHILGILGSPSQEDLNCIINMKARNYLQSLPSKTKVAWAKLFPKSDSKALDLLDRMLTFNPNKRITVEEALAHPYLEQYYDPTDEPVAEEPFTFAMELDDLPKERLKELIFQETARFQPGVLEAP
# Experimental Protocol: Inhibition of ERK1 (unknown origin) at 1 uM by Z'-Lyte assay relative to control
The answer is to be given in %; state only the numeric part.

> print(dat)
                            compound.smiles                               test.target  numeric.value
1  NC(=O)c1c(NC(=O)c2ccccc2Cl)sc2c1CCN(C(=S)Nc1ccccc1)C2  Mitogen-activated protein kinase 3 (Homo sapiens) (UniProt P27361)           85.4
2     NC(=O)c1c(NC(=O)c2ccccc2Cl)sc2c1CCNC2  Mitogen-activated protein kinase 3 (Homo sapiens) (UniProt P27361)           61.5
3  NC(=O)c1c(NC(=O)c2ccccc2Cl)sc2c1CCN(C(=O)Nc1c(Cl)cccc1Cl)C2  Mitogen-activated protein kinase 3 (Homo sapiens) (UniProt P27361)           82.7
4  Cc1ccccc1NC(=S)N1CCc2c(sc(NC(=O)c3ccccc3C(F)(F)F)c2C(N)=O)C1  Mitogen-activated protein kinase 3 (Homo sapiens) (UniProt P27361)           64.9

Next, consider the following compound.
Request: What inhibition value was documented for this compound, `NC(=O)c1c(NC(=O)c2ccccc2Cl)sc2c1CCN(C(=S)Nc1ccccc1C(F)(F)F)C2` ?
Result: 83.6

Reference source: ChEMBL document CHEMBL4342467
